test system: MES-SA/Dx5; assay: In vitro efficacy of free drug silvestrol compounds, MES-SA/Dx5; type: cell-based; details: Homo sapiens; MES-SA/Dx5 cell line
IC50 values for the compounds below.

Smiles text | IC50
COc1ccc([C@@]23Oc4cc(O[C@@H]5O[C@@H]([C@H](O)CO)CO[C@H]5OC)cc(OC)c4[C@]2(O)[C@H](O)[C@H](C(=O)NCCN)[C@H]3c2ccccc2)cc1 | > 200 nM
COC(=O)[C@H]1[C@@H](O)[C@@]2(O)c3c(OC)cc(O[C@@H]4O[C@@H](CCN)CO[C@H]4OC)cc3O[C@@]2(c2ccc(OC)cc2)[C@@H]1c1ccccc1 | > 100 nM

====

tested on: MES-SA; test: In vitro efficacy of free drug silvestrol compounds, MES-SA; assay type: cell-based; conditions: Homo sapiens; MES-SA cell line

Compound | Units label | Value operator | IC50
COC(=O)[C@H]1[C@@H](O)[C@@]2(O)c3c(OC)cc(O[C@@H]4O[C@@H](CCN)CO[C@H]4OC)cc3O[C@@]2(c2ccc(OC)cc2)[C@@H]1c1ccccc1 [amino silvestrol analog] | nM | = | 1.1
COc1ccc([C@@]23Oc4cc(O[C@@H]5O[C@@H]([C@H](O)CO)CO[C@H]5OC)cc(OC)c4[C@]2(O)[C@H](O)[C@H](C(=O)NCCN)[C@H]3c2ccccc2)cc1 [silvestrol amine] | nM | > | 100
